Target System: Fibroblast growth factor 10 (Homo sapiens)
Method: FGF10 binders on small-molecule microarrays, primary screen, biochemical, small-molecule microarray, 635 nm fluorescence (AID 1102)
Condition Description: FGF10 binding, fluorescence 635 nm, higher = more signal
Entries and their composite z-score
Could you keep your reply to the number by itself?

>>> numeric_result("CCN1C(=O)[C@H]2[C@@H]3C(=CC[C@H]2C1=O)C(=O)[C@H]1O[C@H]1[C@H]3O")
1.06
>>> numeric_result("CCOC(=O)[C@H](Cc1ccccc1)NC(=O)CCC1CC(OC(=O)NCc2ccc3c(c2)OCO3)CC2(CCCC(COC(=O)NCCc3ccc(Cl)cc3)O2)O1 (stereo not given in full)")
0.471
>>> numeric_result("CCOC(=O)[C@H](CC(C)C)NC(=O)CCC1CC(OC(=O)NCc2ccc3c(c2)OCO3)CC2(CCCC(COC(=O)NCCOc3ccccc3)O2)O1 (stereo not given in full)")
0.866
>>> numeric_result("CC(C)CN1CCc2nc(-c3ccccc3)c3c(c2C1)CO[C@@H](C)C3")
0.929
>>> numeric_result("O=C1[C@H]2[C@H]3[C@H](O)[C@H](O)CC(=NOCc4ccccc4)[C@@H]3CC[C@H]2C(=O)N1c1cccc(Oc2ccccc2)c1")
0.485

Shift focus to the following entry.
Lookup: Give the reported composite z-score for this molecule. COC(=O)CC=C[C@@H](C)[C@@H](C=NOC[C@@H](O)COCc1ccco1)OC
Found: -0.469

====

Method: RPMI8226 myeloma cell viability, profiling panel, resazurin fluorescence, basal, 24 h, PK04 Diversity Set (AID 1180);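 also: RPMI8826 multiple myeloma cell line at 5000 cells per well; test concentration not given here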
Condition Description: higher = more signal
Parameter threshold = 0.08. Response is true when z-score meets or exceeds it, else false.

>>> class("CCOC(=O)CCN1C(=O)[C@H]2[C@H]3[C@H](O)[C@H](O)CC(=NO[C@@H]4O[C@H](CO)[C@@H](O)[C@H](O)[C@H]4O)[C@@H]3CC[C@H]2C1=O")
"false"
>>> class("C=CC[C@@H]1C=C[C@H](ON=C(C)CCN2CCCc3nc(C)c(C)cc32)[C@@H](CO)O1")
"false"
>>> class("CC1(C)O[C@H]2O[C@H]([C@H](O)CON=C3[C@H]4CCn5c(=O)n(-c6ccccc6)c(=O)n5[C@H]4[C@H](O)[C@@H]4O[C@H]34)[C@H](O)[C@H]2O1")
"true"
>>> class("C#CCCCON=C1C[C@@H](O)[C@@H](O)[C@@H]2[C@@H]3C(=O)N([C@@H](C)c4ccccc4)C(=O)[C@@H]3CC[C@@H]12")
"false"
>>> class("CC(CCC(=O)OC[C@H]1O[C@H](C#Cc2ccccc2)C=C[C@@H]1Oc1ccc(C)cc1)=NOC(C)CN1CCCCc2nc(C)c(C)cc21 (some centres not stated)")
"true"
>>> class("CC(CCN1CCc2nc(-c3ccccc3)c(-c3ccccc3)cc2C1)=NO[C@H](C)c1cn([C@H](CO)Cc2ccccc2)nn1")
"true"

Consider the record given below.
Lookup: Quick check: does O=C1CCCC=C1C(O)C1CCCCC1 (configuration not stated) have z-score greater than or equal to 0.08?
Found: true

====

Method: mitochondrial membrane potential change in A549 cells, profiling panel, cell-based, JC-1 fluorescence, basal, 24 h, 100 nL (AID 1138);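 also: A549 lung adenocarcinoma cells under basal conditions with no added stimulus; test concentration not given here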
Condition Description: higher = more signal
Readout Label: z-score
Could you keep your reply to the number by itself?

// solved cases for z-score follow
>>> numeric_result("CN1CCc2nc(-c3ccccc3)c(-c3ccccc3)cc2C1")
0.0181
>>> numeric_result("CON=C[C@@H](OC)[C@H](C)C=CCC(=O)OC")
-0.223
>>> numeric_result("O=C(NN=C1C[C@@H](O)[C@@H](O)[C@@H]2[C@@H]3C(=O)N(c4ccc(F)cc4F)C(=O)[C@@H]3CC[C@H]12)OCc1ccccc1")
-0.63
>>> numeric_result("CCc1cc2c(nc1CC)CCN(CCC(C)=NO[C@@H]1O[C@H](COC(C)=O)[C@@H](OC(C)=O)[C@H](OC(C)=O)[C@H]1OC(C)=O)C2")
-0.766
>>> numeric_result("COC(=O)[C@H](C)NC(=O)CCC1CC(OC(=O)NCc2ccc3c(c2)OCO3)CC2(CCCC(COC(=O)NCCCN3CCCC3=O)O2)O1 (stereo partly specified)")
-0.224
>>> numeric_result("O=C1C2=CC[C@H]3C(=O)N(c4ccc(F)cc4F)C(=O)[C@H]3[C@H]2[C@H](O)[C@@H]2O[C@H]12")
0.0712
>>> numeric_result("COC(=O)[C@H](C)NC(=O)CC=C[C@@H](C)[C@@H]1C=C[C@H](O)[C@@H](CO)O1")
-0.142
>>> numeric_result("CON=C(C)CCN1CCCCc2nc(C)c(C)cc21")
1.19

Lookup: Give the reported z-score for this compound. CC(=O)OC[C@H]1O[C@@H](ON=C2[C@H]3CCn4c(=O)n(-c5ccccc5)c(=O)n4[C@H]3[C@H](O)[C@@H]3O[C@H]23)[C@H](OC(C)=O)[C@@H](OC(C)=O)[C@@H]1OC(C)=O
Found: 0.188

Lookup: Give the reported z-score for this compound. CCOC(=O)CCN1C(=O)[C@H]2[C@H]3[C@H](O)[C@H](O)CC(=NOCC=C(C)CCC=C(C)C)[C@@H]3CC[C@H]2C1=O
Found: 0.0237

Lookup: Give the reported z-score for this compound. O=C(NCCC[N+]1=CC=NC1c1ccccc1)N1CCCc2nc(-c3ccc(Br)cc3)ccc21 (stereo unspecified)
Found: 1.76
